Target: human P2X3 receptor (Homo sapiens (Human))
Experiment: Evaluation of human P2X3 receptor inhibitory activity (Fluo-3 calcium fluorescence, FDSS 3000, ATP stimulation)
Assay type: cell-based
Settings: C6BU-1 cells stably expressing human P2X3 receptor
property-measured: log10 IC50 (log10 of the value in nM)

compound	log10 IC50
COC(=O)[C@H](C)[C@H](C)n1c(=O)[nH]/c(=N\c2ccc(Oc3ccc(C)nc3)cc2)n(Cc2ccc(Cl)cc2)c1=O [Compound I-1375]	0.70
COCc1ccc(/N=c2\[nH]c(=O)n(C[C@H](C)C(=O)O)c(=O)n2Cc2ccc(Cl)cc2)cc1 [Compound I-0686]	2.78
CCCCOc1ccc(/N=c2\[nH]c(=O)n(C[C@H](C)C(=O)O)c(=O)n2Cc2ccc(C)cc2)cc1 [Compound I-0820]	1.54
COC(=O)[C@H](C)[C@H](C)n1c(=O)[nH]/c(=N\c2ccc3nc(C)ccc3c2)n(Cc2ccc(C)cc2)c1=O [Compound I-1324]	0.95
CCn1c(=O)[nH]/c(=N\c2ccc(Oc3ccc(C(=O)OC)o3)cc2)n(Cc2ccc(Cl)cc2)c1=O [Compound I-2150]	1.64
COC(=O)[C@@H](C)Cn1c(=O)[nH]/c(=N\c2cccc(C(C)C)c2)n(Cc2ccc(Cl)cc2)c1=O [Compound I-0777]	2.06
CCOC(=O)CCn1c(=O)[nH]/c(=N\c2ccc(OC(C)C)c(F)c2)n(CC2CCCCCCC2)c1=O [Compound I-1911]	2.40

###

Target: human P2X3 receptor (Homo sapiens (Human), UniProt P56373)
Sequence (P56373 whole entry): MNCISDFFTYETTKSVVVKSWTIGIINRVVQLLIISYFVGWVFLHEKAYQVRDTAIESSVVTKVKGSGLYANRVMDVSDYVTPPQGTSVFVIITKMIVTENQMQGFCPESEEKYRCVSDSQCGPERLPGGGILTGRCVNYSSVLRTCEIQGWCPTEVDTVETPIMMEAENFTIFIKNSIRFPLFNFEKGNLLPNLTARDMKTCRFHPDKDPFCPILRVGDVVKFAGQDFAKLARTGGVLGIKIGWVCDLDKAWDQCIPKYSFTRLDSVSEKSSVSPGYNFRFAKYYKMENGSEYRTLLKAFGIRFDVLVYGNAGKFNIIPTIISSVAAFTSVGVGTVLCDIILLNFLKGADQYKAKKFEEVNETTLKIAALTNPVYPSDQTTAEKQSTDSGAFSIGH
Test: Evaluation of human P2X3 receptor inhibitory activity (Fluo-3 calcium fluorescence, FDSS 3000, ATP stimulation)
Format: cell-based
Conditions: human P2X3 receptor, Test Example 1
pIC50: −log10 of the molar value.
Where pIC50 equals or exceeds 8, the correct label is Criterion met; where it does not, the label is Criterion not met.

compound	assigned-class
CCOC(=O)CCn1c(=O)[nH]/c(=N\c2ccc3nc(C)sc3c2)n(Cc2ccc(C)cc2)c1=O [Compound I-1519]	Criterion met
CCn1c(=O)[nH]/c(=N\c2ccc3nc(/C=N\OC)sc3c2)n(Cc2ccc(Cl)cc2)c1=O [Compound I-2338]	Criterion not met
COC(=O)CCn1c(=O)[nH]/c(=N\c2ccc(Oc3cccc(C(N)=O)n3)cc2)n(Cc2ccc(Cl)cc2)c1=O [Compound I-2684]	Criterion met

###

Molecular target: human P2X3 receptor (Homo sapiens (Human), UniProt P56373)
Assay: Evaluation of human P2X3 receptor inhibitory activity (Fluo-3 calcium fluorescence, FDSS 3000, ATP stimulation);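 also: stimulus was 50 nM ATP with fluorescence followed for 3 min, and the response per well was peak post-ATP fluorescence divided by the reading at measurement start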
Assay type: cell-based
Settings: C6BU-1 cells stably expressing human P2X3 receptor, Fluo-3 fluorescence, FDSS 3000
Classification field. Basis: IC50. Definitions: bucket A = under 0.01 µM, bucket B = from 0.01 µM up to 0.1 µM, bucket C = 0.1 µM and over

smiles-record	assigned-class
O=C(O)C1(Cn2c(=O)[nH]/c(=N\c3ccc(OCC4CC4)cc3)n(Cc3ccc(Cl)cc3)c2=O)CC1	bucket B
CCOc1ccc(/N=c2\[nH]c(=O)n(C[C@H]3COC(C)(C)O3)c(=O)n2Cc2ccc(Cl)cc2)cc1Cl	bucket A
CCC[C@H](C)Oc1ccc(/N=c2\[nH]c(=O)n(CCC(=O)OCC)c(=O)n2Cc2ccc(C)cc2)cc1	bucket B
Cc1ccc(Cn2c(=O)n(CCC(=O)O)c(=O)[nH]/c2=N\c2ccc(O[C@H](C)C(F)(F)F)cc2)cc1	bucket B
C[C@@H](C(=O)O)[C@H](C)n1c(=O)[nH]/c(=N\c2ccc3c(c2)CCN3S(C)(=O)=O)n(Cc2ccc(Cl)cc2)c1=O	bucket C
Cc1cc(Oc2ccc(/N=c3\[nH]c(=O)n(CCO)c(=O)n3Cc3ccc(Cl)cc3)cc2)no1	bucket B
COC(=O)CC1(Cn2c(=O)[nH]/c(=N\c3ccc(OC(C)C)c(C)c3)n(Cc3ccc(Cl)cc3)c2=O)CC1	bucket B
CCOC(=O)CCn1c(=O)[nH]/c(=N\c2ccc(O[C@H](C)CC)cc2)n(Cc2ccc(C)cc2)c1=O	bucket A
COC(=O)[C@@H](C)Cn1c(=O)[nH]/c(=N\c2ccc(CCC3CC3)c(C)c2)n(Cc2ccc(Cl)cc2)c1=O	bucket C
CCOC(=O)CCn1c(=O)[nH]/c(=N\c2ccc(OC(C)C)c(C)c2)n(Cc2ccc(C)cc2)c1=O	bucket A
COC(=O)[C@@H](C)Cn1c(=O)[nH]/c(=N\c2ccc(OC(C)C)c(OC)c2)n(Cc2ccc(C)cc2)c1=O	bucket B
CC[C@@H](C)Oc1ccc(/N=c2\[nH]c(=O)n(C[C@H](C)C(=O)O)c(=O)n2Cc2ccc(C)cc2)cc1Cl	bucket A
Cc1ccc(Cn2c(=O)n(CCC(=O)O)c(=O)[nH]/c2=N\c2ccc(OCC3CC3)cc2)cc1	bucket B
COC(=O)[C@@H](O)Cn1c(=O)[nH]/c(=N\c2ccc(OC(C)C)c(C)c2)n(Cc2ccc(Cl)cc2)c1=O	bucket B
Cc1ccc(Cn2c(=O)n(C[C@H](C)C(=O)O)c(=O)[nH]/c2=N\c2ccc(C3CCCC3)cc2)cc1	bucket C
CC(C)=Cc1ccc(/N=c2\[nH]c(=O)n(C[C@H](C)C(=O)O)c(=O)n2Cc2ccc(C)cc2)cc1F	bucket B
Cc1ccc(Cn2c(=O)n(C[C@H](C)C(=O)O)c(=O)[nH]/c2=N\c2ccc(CC(C)C)c(C)c2)cc1	bucket B
C#Cc1ccc(Cn2c(=O)n(C[C@H](C)C(=O)OC)c(=O)[nH]/c2=N\c2ccc(OC(C)C)c(C)c2)cc1	bucket C
CC(=O)Nc1nc2ccc(/N=c3\[nH]c(=O)n([C@@H](C)[C@@H](C)C(=O)O)c(=O)n3Cc3ccc(Cl)cc3)cc2s1	bucket C
C[C@@H](C(=O)O)[C@H](C)n1c(=O)[nH]/c(=N\c2ccc3[nH]ccc3c2)n(Cc2ccc(Cl)cc2)c1=O	bucket C
COC(=O)[C@@H](C)Cn1c(=O)[nH]/c(=N\c2ccc(C3=CCCCC3)cc2)n(Cc2ccc(C)cc2)c1=O	bucket C
C[C@@H](C(=O)O)[C@H](C)n1c(=O)[nH]/c(=N\c2ccc3oc4c(c3c2)CCCCC4)n(Cc2ccc(Cl)cc2)c1=O	bucket C
CCOC(=O)CCn1c(=O)[nH]/c(=N\c2ccc(O[C@H](C)CC)c(C)c2)n(Cc2ccc(C)cc2)c1=O	bucket A
Cc1nc2ccc(/N=c3\[nH]c(=O)n(C)c(=O)n3Cc3ccc(Cl)cc3)cc2s1	bucket B
Cc1ccc(Cn2c(=O)n(C[C@H](C)C(=O)O)c(=O)[nH]/c2=N\c2ccc(C3=CCCC3)cc2)cc1	bucket C

###

Form field: log10 IC50 (one value per entry).
Molecular target: human P2X3 receptor (Homo sapiens (Human))
Assay: Evaluation of human P2X3 receptor inhibitory activity (Fluo-3 calcium fluorescence, FDSS 3000, ATP stimulation)
Format: cell-based
Settings: C6BU-1 cells stably expressing human P2X3 receptor
property-measured: log10 IC50 (log10 of the value in nM)

compound	log10 IC50
Cc1nc2ccc(/N=c3\[nH]c(=O)n(CCO)c(=O)n3CC3CCC(C)CC3)cc2s1 (centres unmarked)	0.60
CC(C)Oc1ccc(/N=c2\[nH]c(=O)[nH]c(=O)n2Cc2ccc(Cl)cc2)cc1	2.55
Cc1ccc(Cn2c(=O)n(CCCC(=O)O)c(=O)[nH]/c2=N\c2ccc3nc(C)sc3c2)cc1	1.43
CCOC(=O)CC(C)(C)n1c(=O)[nH]/c(=N\c2ccc(OC(C)C)c(Cl)c2)n(Cc2ccc(Cl)cc2)c1=O	1.20
COC(=O)[C@@H](C)Cn1c(=O)[nH]/c(=N\c2ccc3c(c2)COCO3)n(Cc2ccc(Cl)cc2)c1=O	1.72
CCOc1ccc(/N=c2\[nH]c(=O)n(C[C@@H](C)C(=O)OC)c(=O)n2CC2CCCCC2)cc1Cl	1.04
CCOC(=O)C1(Cn2c(=O)[nH]/c(=N\c3ccc(CC(C)C)c(Cl)c3)n(Cc3ccc(C)cc3)c2=O)CC1	1.08
CCn1c(=O)[nH]/c(=N\c2ccc(Oc3ccc(C(=O)O)cc3)cc2)n(Cc2ccc(C)cc2)c1=O	1.34
COC(=O)C(C)(C)n1c(=O)[nH]/c(=N\c2ccc(O)c(Cl)c2)n(Cc2ccc(Cl)cc2)c1=O	1.48
COC(=O)[C@@H](C)Cn1c(=O)[nH]/c(=N\c2cccc(C(F)(F)F)c2)n(Cc2ccc(Cl)cc2)c1=O	1.48
O=C(O)c1cc(Oc2ccc(/N=c3\[nH]c(=O)[nH]c(=O)n3Cc3ccc(Cl)cc3)cc2F)ccn1	0.85
COC(=O)[C@@H](C)Cn1c(=O)[nH]/c(=N\c2ccc3c(c2)CCC3)n(Cc2ccc(Cl)cc2)c1=O	2.32
CCn1c(=O)[nH]/c(=N\c2ccc(Oc3cncc(C(=O)OC)c3)cc2)n(Cc2ccc(Cl)cn2)c1=O	2.12
Cc1cc(Oc2ccc(/N=c3\[nH]c(=O)n(CC(N)=O)c(=O)n3Cc3ccc(Cl)cc3)cc2)ccn1	1.00

FYI, the data here is from patent US9718790B2.
